Where these numbers come from: patent US20090030039A1

Biological target: human CXCR3 (Homo sapiens)
Construct: expressed in transfected cells; host or cells: CHO cells (membrane preparation)
Sequence (P49682 1-368): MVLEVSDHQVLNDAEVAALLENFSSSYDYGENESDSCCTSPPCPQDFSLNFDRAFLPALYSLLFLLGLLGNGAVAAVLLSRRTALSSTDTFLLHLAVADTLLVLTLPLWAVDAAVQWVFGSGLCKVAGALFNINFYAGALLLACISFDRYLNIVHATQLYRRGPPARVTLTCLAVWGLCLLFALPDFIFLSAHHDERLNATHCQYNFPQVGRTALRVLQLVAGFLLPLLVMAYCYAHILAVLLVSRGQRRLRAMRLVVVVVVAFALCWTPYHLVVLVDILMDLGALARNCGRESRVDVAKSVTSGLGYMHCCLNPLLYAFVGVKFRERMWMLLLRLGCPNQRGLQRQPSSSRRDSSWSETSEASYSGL
Test: [35S]GTPγS exchange assay, CXCR3 receptor inhibition (hI-TAC-induced GTPγS-binding)
Assay type: biochemical
Conditions: -log IC50 (molar) inhibiting 50% of specific I-TAC-induced GTPγS-binding; membranes of human CXCR3-transfected CHO cells; read-out: pIC50 (converted)
Param label: returns class 1 when IC50 < 2000 nM, returns class 0 otherwise, including exact equality.

Problem: Is IC50 strictly under 2000 nM for the entry O=C1CCC(c2ccccc2)(C2CCN(Cc3cc4cc(Br)ccc4o3)CC2)C(=O)N1 (centres unmarked) [Compound 158] ?
Result: class 1

Problem: Consider the compound CC(c1ccc(Br)cc1)N1CCC(C2(c3cccc(C(=O)O)c3)CCC(=O)NC2=O)CC1 (centres unmarked) [Compound 165] . Is its IC50 strictly less than 2000 nM?
Result: class 1

Problem: Please indicate whether the reported IC50 of O=C1CCC(c2ccc(F)cc2F)(C2CCN(Cc3ccc(Br)cc3F)CC2)C(=O)N1 (centres unmarked) [Compound 198] is strictly below 2000 nM.
Result: class 1

Problem: Could you please tell me whether IC50 recorded for O=C1CCC(c2cccc(C(=O)O)c2)(C2CCN(Cc3ccc(Cl)c(Cl)c3)CC2)C(=O)N1 (centres unmarked) [Compound 83] is less than 2000 nM?
Result: class 1

Problem: Is 2000 nM strictly greater than the compound's reported IC50? compound: O=C1CCC(c2ccc(F)cc2)(C2CCN(Cc3ccc(F)c(Br)c3)CC2)C(=O)N1 (centres unmarked) [Compound 58]
Result: class 0

Problem: Is IC50 strictly under 2000 nM for the entry O=C1CCC(c2ccccc2)(C2CCN(Cc3ccc(C(F)(F)F)cc3)CC2)CN1 (centres unmarked) [Compound 146] ?
Result: class 0

Problem: # strict comparison: is reported IC50 < 2000 nM? input = O=C1CCC(c2ccccc2)(C2CCN(Cc3ccc(Cl)s3)CC2)C(=O)N1 (centres unmarked) [Compound 151]
Result: class 0

Problem: Regarding O=C1CCC(c2cccc(Cl)c2)(C2CCN(Cc3ccc(F)c(F)c3F)CC2)C(=O)N1 (centres unmarked) [Compound 51] , kindly confirm whether its IC50 is beneath 2000 nM.
Result: class 0

Problem: Hello, is IC50 of the following compound strictly smaller than 2000 nM? O=C1CCC(c2cccc(Cl)c2)(C2CCN(Cc3ccc4ccccc4c3)CC2)C(=O)N1 (centres unmarked) [Compound 149]
Result: class 0

Problem: Bench note: check whether CC(=O)Nc1ccccc1C1(C2CCN(Cc3ccc(Br)cc3)CC2)CCC(=O)NC1=O (centres unmarked) [Compound 24] shows IC50 below 2000 nM
Result: class 1

Problem: Bench note: check whether O=C1CCC(c2ccc(F)cc2)(C2CCN(Cc3ccc(Cl)c(F)c3)CC2)CN1 (centres unmarked) [Compound 139] shows IC50 below 2000 nM
Result: class 1

Problem: Field: below-cutoff. Rule: recorded IC50 strictly less than 2000 nM. Subject: O=C1CCC(c2cccc(C(F)(F)F)c2)(C2CCN(Cc3ccc(OC(F)F)cc3)CC2)C(=O)N1 (centres unmarked) [Compound 110]
Result: class 0

Problem: API: query returns whether the compound falls strictly under 2000 nM in IC50. Query: O=C1CCC(c2ccc(F)cc2)(C2CCN(Cc3cc(F)c(F)cc3F)CC2)C(=O)N1 (centres unmarked) [Compound 156]
Result: class 1

Problem: # check: IC50 < 2000 nM for O=C1CCC(c2ccc(F)cc2F)(C2CCN(Cc3ccc(Br)c(F)c3)CC2)C(=O)N1 (centres unmarked) [Compound 197]
Result: class 1

Problem: Please check: IC50 for CC(c1ccc(Br)cc1)N1CCC(C2(c3ccc(F)cc3)CCC(=O)NC2=O)CC1 (centres unmarked) [Compound 3] , strictly under 2000 nM or not?
Result: class 1

Problem: Find out if reported IC50 for O=C1CCC(c2cccnc2)(C2CCN(Cc3ccc(Cl)c(Cl)c3)CC2)C(=O)N1 (centres unmarked) [Compound 177] is less than 2000 nM
Result: class 1

Problem: Here's an entry: O=C1CCC(c2ccc(F)cc2)(C2CCN(Cc3cc4cc(Br)ccc4o3)CC2)C(=O)N1 (centres unmarked) [Compound 161] . Is its IC50 below 2000 nM?
Result: class 0

Problem: Hello, I'm reviewing records and need to know if IC50 of O=C1CCC(c2cccc(C(=O)O)c2)(C2CCN(Cc3ccc(Cl)cc3)CC2)C(=O)N1 (centres unmarked) [Compound 66] is below 2000 nM. Could you check?
Result: class 1

Problem: Bench note: check whether CN1C(=O)CCC(c2ccccc2)(C2CCN(Cc3ccc(Cl)c(Cl)c3)CC2)C1=O (centres unmarked) [Compound 122] shows IC50 below 2000 nM
Result: class 0

Problem: # strict comparison: is reported IC50 < 2000 nM? input = CC(c1ccc(Br)cc1)N1CCC(C2(c3ccccc3)CCC(=O)NC2=O)CC1 (single isomer, unassigned) [Compound 18]
Result: class 1

Problem: Please state whether IC50 is below 2000 nM for O=C1CCC(c2cccc(Cl)c2)(C2CCN(Cc3ccc(Cl)c(F)c3)CC2)C(=O)N1 (centres unmarked) [Compound 77]
Result: class 1

Problem: Consider COc1ccc(C2(C3CCN(Cc4ccc(Br)cc4)CC3)CCC(=O)NC2=O)cc1 (centres unmarked) [Compound 93] . Does its IC50 lie strictly below 2000 nM?
Result: class 0

Problem: Could you please tell me whether IC50 recorded for Cc1cc(C)c(CN2CCC(C3(c4ccccc4)CCC(=O)NC3=O)CC2)c(C)c1 (centres unmarked) [Compound 157] is less than 2000 nM?
Result: class 0

Problem: is_below(IC50, 2000 nM) for COc1cccc(C2(C3CCN(Cc4ccc(Cl)cc4Cl)CC3)CCC(=O)NC2=O)c1 (centres unmarked) [Compound 74] ?
Result: class 0

Problem: Hi there! Is IC50 for O=C1CCC(c2ccc(F)cc2F)(C2CCN(Cc3ccc(OC(F)F)cc3)CC2)C(=O)N1 (centres unmarked) [Compound 205] below 2000 nM, do you know?
Result: class 1

Problem: Field: below-cutoff. Rule: recorded IC50 strictly less than 2000 nM. Subject: O=C1CCC(c2ccccc2)(C2CCN(Cc3ccc(OC(F)(F)F)cc3)CC2)C(=O)N1 (centres unmarked) [Compound 112]
Result: class 1

Problem: For O=C1CCC(c2ccc(F)c(F)c2)(C2CCN(Cc3ccc(Cl)c(F)c3)CC2)C(=O)N1 (centres unmarked) [Compound 192] , is the recorded IC50 below the cut-off of 2000 nM?
Result: class 0

Problem: Consider the compound O=C1CCC(c2ccc(F)cc2F)(C2CCN(Cc3ccc(Br)cc3)CC2)C(=O)N1 (racemic) [Compound 194] . Is its IC50 strictly less than 2000 nM?
Result: class 1

Problem: Record O=C1CCC(c2ccccc2)(C2CCN(Cc3ccc(F)c(F)c3F)CC2)C(=O)N1 (centres unmarked) [Compound 50] : is its IC50 strictly below 2000 nM?
Result: class 1

---

Target: human CXCR3 (Homo sapiens, UniProt P49682)
Construct: expressed in transfected cells; host or cells: CHO cells (membrane preparation)
Sequence (P49682 1-368): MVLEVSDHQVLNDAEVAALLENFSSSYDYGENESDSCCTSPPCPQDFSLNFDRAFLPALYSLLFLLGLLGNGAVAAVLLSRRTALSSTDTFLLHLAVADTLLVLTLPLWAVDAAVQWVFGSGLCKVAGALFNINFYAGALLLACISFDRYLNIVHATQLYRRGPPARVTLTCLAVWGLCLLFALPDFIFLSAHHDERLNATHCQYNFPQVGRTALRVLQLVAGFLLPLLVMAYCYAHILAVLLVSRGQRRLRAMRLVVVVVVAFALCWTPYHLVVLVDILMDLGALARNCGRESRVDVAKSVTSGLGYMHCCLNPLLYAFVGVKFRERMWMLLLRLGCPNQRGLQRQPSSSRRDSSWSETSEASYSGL
Test: [35S]GTPγS exchange assay, CXCR3 receptor inhibition (hI-TAC-induced GTPγS-binding)
Assay type: biochemical
Conditions: pIC50, -log IC50 (molar) inhibiting 50% of specific I-TAC-induced GTPγS-binding; membranes of human CXCR3-transfected CHO cells
Experimental: CXCR3 Receptor Inhibition was Examined in a [^35S]GTPγS Exchange Assay The exchange of guanosine 5′-[^35S]triphosphate was measured on membranes of human CXCR3-transfected CHO cells. […] Flashplate bound radioactivity was determined by liquid scintillation counting. Basal GTPγS-binding was measured in 8 wells with membranes incubated in the same volume with 1% DMSO, without I-TAC. Maximal GTPγS-binding was measured in 8 wells with membranes incubated with 1% DMSO and 3 nM I-TAC. […]
Please respond with reported IC50 for every item in the list.
Express it in nM; write the number only.

Noted for O=C1CCC(c2ccccc2)(C2CCN(Cc3ccc(Br)cc3)CC2)C(=O)N1 (centres unmarked) [Compound 88] : its IC50 reads 1260

Entry under test: O=C1CCC(c2ccccc2)(C2CCN(Cc3ccc(Br)cc3)CC2)C(=O)N1 (centres unmarked) [Compound 87] . Its IC50 was 794

# IC50 (molecule: O=C1CCC(c2ccccc2)(C2CCN(Cc3ccc(Br)cc3)CC2)C(=O)N1 (centres unmarked) [Compound 10] ) is 316

Please fill in: IC50 reported for COc1cccc(C2(C3CCN(Cc4ccc(Br)cc4)CC3)CCC(=O)NC2=O)c1 (centres unmarked) = 1580

Measured IC50, O=C1CCC(c2cccc(C(F)(F)F)c2)(C2CCN(Cc3ccc(Cl)cc3)CC2)C(=O)N1 (centres unmarked) : 2510

Reported IC50 of O=C1CCC(c2ccccc2)(C2CCN(Cc3ccc(Cl)c(C(F)(F)F)c3)CC2)C(=O)N1 (centres unmarked) : 2000

In plain terms, Nc1cccc(C2(C3CCN(Cc4ccc(Br)cc4)CC3)CCC(=O)NC2=O)c1 (centres unmarked) has a documented IC50 of 316

Measured IC50, O=C1CCC(c2ccccc2)(C2CCN(Cc3ccc(Br)cc3)CC2)C(=O)N1 (single isomer, unassigned) [Compound 13] : 316
